- PROTOCOL: Pharmacokinetic studies in mice (IV and PO)
- Format: in vivo
- TEST_SETTINGS: mouse, plasma, IV 2 mg/kg
TEST_READOUT: half-life (h)

Please review the entries below; each comes with its answer.
Ask: Tell me half-life reported for CO[C@H]1C2=CC(C2)[C@H](C)CS(=O)(=O)NC(=O)c2ccc3c(c2)N(C[C@@H]2CC[C@H]21)C[C@@]1(CCCc2cc(Cl)ccc21)CO3 (single isomer, unassigned) [Cpd. No. 14 (Isomer 1)]
Result: 3.6

Ask: Read off the recorded half-life for CO[C@H]1C2=CC(C2)[C@H](C)[C@@H](C)S(=O)(=O)NC(=O)c2ccc3c(c2)N(C[C@@H]2CC[C@H]21)C[C@@]1(CCCc2cc(Cl)cc(F)c21)CO3 (single isomer, unassigned) [20 (isomer 1)]
Result: 6.7

(1) CO[C@H]1/C=C/C[C@H](C)[C@@H](C)S(=O)(=O)NC(=O)c2ccc3c(c2)N(C[C@@H]2CC[C@H]21)C[C@@]1(CCCc2cc(Cl)ccc21)CO3 [AMG-176, reference compound]
(2) CO[C@H]1C2=CC(C2)[C@H](C)[C@@H](C)S(=O)(=O)NC(=O)c2ccc3c(c2)N(C[C@@H]2CC[C@H]21)C[C@@]1(CCCc2cc(Cl)c(F)cc21)CO3 (single isomer, unassigned) [Cpd. No. 21 (isomer 1)]
Ask: Lowest half-life? choose 1 or 2 Give the label of your selection.
Result: 2
(2: 3.7 h, 1: 7.2 h)

###

- Tested on: NCI-H929 cells
- PROTOCOL: Cell viability assay (NCI-H929 cells), CCK-8
- Format: cell-based
- TEST_SETTINGS: Homo sapiens, NCI-H929, 24 h, 5% FBS
pIC50: −log10 of the molar value.
TEST_READOUT: pIC50

Ask: State recorded pIC50 with NCI-H929 cells, entry C[C@@H]1[C@@H](C)S(=O)(=O)NC(=O)c2ccc3c(c2)N(C[C@@H]2CC[C@H]2[C@@H](OCCN2C[C@@H](C)N(C)[C@@H](C)C2)C2=C[C@H]1C2)C[C@@]1(CCCc2c1ccc(Cl)c2F)CO3 [compound 84] , no comment.
Result: 7.12

(P) CC(C)OC(=O)CO[C@H]1C2=C[C@@H](C2)[C@H](C)[C@@H](C)S(=O)(=O)NC(=O)c2ccc3c(c2)N(C[C@@H]2CC[C@H]21)C[C@@]1(CCCc2c1ccc(Cl)c2F)CO3 [compound 73]
(Q) CO[C@@]1(CN2CCN3CCOC[C@@H]3C2)C2=C[C@@H](C2)[C@H](C)[C@@H](C)S(=O)(=O)NC(=O)c2ccc3c(c2)N(C[C@@H]2CC[C@H]21)C[C@@]1(CCCc2c1ccc(Cl)c2F)CO3 [compound 51]
Ask: Which record would sort first by descending pIC50, P or Q ? Lab log: write the label of the selected item as the result.
Result: Q

###

pIC50: −log10 of the molar value.
Below are molecules with their pIC50 as measured on Mcl-1 protein (residues 171-323) (Homo sapiens, UniProt Q07820).
Sequence (Q07820 171-323): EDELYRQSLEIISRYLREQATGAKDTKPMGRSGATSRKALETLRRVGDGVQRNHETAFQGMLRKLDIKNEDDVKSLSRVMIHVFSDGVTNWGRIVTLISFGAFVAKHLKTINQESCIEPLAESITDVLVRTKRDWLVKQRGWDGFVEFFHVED
TEST_READOUT: pIC50

Observe how each entry below is paired with its result.
Ask: Provide measured pIC50 on Mcl-1 protein (residues 171-323) (Homo sapiens, UniProt Q07820) for CO[C@H]1C2=C[C@@H](C2)[C@H](C)N(C[C@H]2CCCO2)S(=O)(=O)NC(=O)c2ccc3c(c2)N(C[C@@H]2CC[C@H]21)C[C@@]1(CCCc2cc(Cl)ccc21)CO3 (single isomer, unassigned) [30 (isomer 4)] please.
Result: 7.68

Ask: Enter pIC50 (test system Mcl-1 protein (residues 171-323) (Homo sapiens, UniProt Q07820)) for CO[C@@H]1C2=CC(C2)CC(C)S(=O)(=O)NC(=O)c2ccc3c(c2)N(C[C@@H]2CC[C@H]21)C[C@@]1(CCCc2cc(Cl)ccc21)CO3 (single isomer, unassigned) [7 (Isomer 2)]
Result: 8.38

(P) COC1CCN(CCO[C@H]2C3=C[C@@H](C3)[C@H](C)[C@@H](C)S(=O)(=O)NC(=O)c3ccc4c(c3)N(C[C@@H]3CC[C@H]32)C[C@@]2(CCCc3c2ccc(Cl)c3F)CO4)CC1
(Q) CC[C@@H]1CS(=O)(=O)NC(=O)c2ccc3c(c2)N(C[C@@H]2CC[C@H]2[C@@H](OC)C2=CC1C2)C[C@@]1(CCCc2cc(Cl)ccc21)CO3 (single isomer, unassigned) [Cpd. No. 9 (Isomer 1)]
(R) CO[C@@]1(CN2C[C@@H](C)N(C)[C@@H](C)C2)C2=C[C@@H](C2)[C@H](C)[C@@H](C)S(=O)(=O)NC(=O)c2ccc3c(c2)N(C[C@@H]2CC[C@H]21)C[C@@]1(CCCc2c1ccc(Cl)c2F)CO3
Ask: Hello, I need these entries ordered by pIC50, highest reading first. Thanks! Give your ranking as a list of the labels in the requested order.
Result: Q, R, P
(Q: 8.36, R: 7.77, P: 7.44)

(I) CO[C@H]1C2=CC(C2)[C@H](C)N(C)S(=O)(=O)NC(=O)c2ccc3c(c2)N(C[C@@H]2CC[C@H]21)C[C@@]1(CCCc2cc(Cl)ccc21)CO3 (single isomer, unassigned) [26 (isomer 2)]
(II) CO[C@@H]1C2CC(C2)[C@H](C)N(C)S(=O)(=O)NC(=O)c2ccc3c(c2)N(C[C@@H]2CC[C@H]21)C[C@@]1(CCCc2cc(Cl)ccc21)CO3
(III) CO[C@H]1C2=CC(CCS(=O)(=O)NC(=O)c3ccc4c(c3)N(C[C@@H]3CC[C@H]31)C[C@@]1(CCCc3cc(Cl)ccc31)CO4)C2 (single isomer, unassigned) [Cpd. No. 1 (Isomer 1)]
Ask: Put the items in sequence by pIC50, from largest down. A ranking is expressed here by listing the labels in the requested order.
Result: I, III, II

###

These molecules were tested on Mcl-1 protein (residues 171-323) (Homo sapiens); IC50 is the recorded read-out.
TEST_READOUT: IC50 (nM)

Solved entries:
Ask: Complete the entry with IC50 for C[C@@H]1[C@@H](C)S(=O)(=O)NC(=O)c2ccc3c(c2)N(C[C@@H]2CC[C@H]2[C@@H](OCCN2CC4(CN(C)C4)C2)C2=C[C@H]1C2)C[C@@]1(CCCc2c1ccc(Cl)c2F)CO3 [compound 81]
Result: 17

Ask: Tell me its IC50 given CO[C@@H]1C2=CC(C2)[C@H](C)N(C)S(=O)(=O)NC(=O)c2ccc3c(c2)N(C[C@@H]2CC[C@H]21)C[C@@]1(CCCc2cc(Cl)ccc21)CO3 (single isomer, unassigned) [27 (isomer 1)] as the entry.
Result: 13

Ask: Tell me its IC50 given CC[C@@H]1CS(=O)(=O)NC(=O)c2ccc3c(c2)N(C[C@@H]2CC[C@H]2[C@@H](OC)C2=CC1C2)C[C@@]1(CCCc2cc(Cl)ccc21)CO3 (single isomer, unassigned) [Cpd. No. 10 (Isomer 2)] as the entry.
Result: 4.9

Ask: Could you please provide reported IC50 for CO[C@@]1(CN2CCN3CCOC[C@H]3C2)C2=C[C@@H](C2)[C@H](C)[C@@H](C)S(=O)(=O)NC(=O)c2ccc3c(c2)N(C[C@@H]2CC[C@H]21)C[C@@]1(CCCc2c1ccc(Cl)c2F)CO3 [compound 34] ? Thanks!
Result: 9.7

(P) CO[C@H]1C2=C[C@@H](C2)[C@H](C)[C@@H](C)S(=O)(=O)NC(=O)c2ccc3c(c2)N(C[C@@H]2CC[C@H]21)C[C@@]1(CCCc2cc(Cl)ccc21)CO3 (single isomer, unassigned) [Cpd. No. 15 (isomer 1)]
(Q) CO[C@H]1C2=C[C@H](C2)[C@H](C)[C@@H](C)S(=O)(=O)NC(=O)c2ccc3c(c2)N(C[C@@H]2CC[C@H]21)C[C@@]1(CCCc2cc(Cl)ccc21)CO3 (single isomer, unassigned) [Cpd. No. 15 (isomer 2)]
Ask: Between P and Q , which one shows the smaller IC50 number? Kindly give the label for the entry you pick.
Result: Q

(1) CO[C@H]1C2=CC(C2)C(C)(C)CS(=O)(=O)NC(=O)c2ccc3c(c2)N(C[C@@H]2CC[C@H]21)C[C@@]1(CCCc2cc(Cl)ccc21)CO3 (single isomer, unassigned) [Cpd. No. 5 (Isomer 2)]
(2) CC(C)OC(=O)CO[C@H]1C2=C[C@@H](C2)[C@H](C)[C@@H](C)S(=O)(=O)NC(=O)c2ccc3c(c2)N(C[C@@H]2CC[C@H]21)C[C@@]1(CCCc2c1ccc(Cl)c2F)CO3 [compound 73]
Ask: Pick one, 1 or 2 : lowest reported IC50. Please identify the chosen entry by its label.
Result: 1

(A) CO[C@@H]1C2=CC(CCS(=O)(=O)NC(=O)c3ccc4c(c3)N(C[C@@H]3CC[C@H]31)C[C@@]1(CCCc3cc(Cl)ccc31)CO4)C2 (single isomer, unassigned) [Cpd. No. 4 (Isomer 1)]
(B) CO[C@H]1C2=C[C@@H](C2)[C@H](C)[C@@H](C)S(=O)(=O)NC(=O)c2ccc3c(c2)N(C[C@@H]2CC[C@H]21)C[C@@]1(CCCc2c1cc(F)c(Cl)c2F)CO3 [compound 25]
Ask: Of the two listed items, which has the higher IC50? First: A Second: B Pick one; state its label.
Result: B
